Measured values drawn from PubChem BioAssay (NCI) for this set.

Tested on: PC-3 prostate
Experiment: NCI tumour cell line growth inhibition, 48 h
Property Label: TGI (µM)

{"columns": ["Compound", "Bound Type", "Reported"],
 "data": [
  ["C=C1C(=O)O[C@@H]2C1C[C@@H](O)/C(C)=C/C/C=C(\\C)CCC[C@H](C)[C@H]2OC(C)=O (some centres not stated)", "=", 51.3],
  ["CCC1=C[C@@H]2CN(C1)Cc1c([nH]c3ccccc13)[C@@](C(=O)OC)(c1cc3c(cc1OC)N(C=O)[C@H]1[C@@](O)(C(=O)OC)[C@H](OC(C)=O)[C@]4(CC)[C@@H]5C[C@@H]5CN5CC[C@]31[C@@H]54)C2", ">", 6.25],
  ["Cc1c(NC(=S)N/N=C\\C(=N/NC(=S)Nc2c(C)n(C)n(-c3ccccc3)c2=O)c2ccccc2)c(=O)n(-c2ccccc2)n1C", ">", 100],
  ["O=C(O)C(F)(F)C(F)(F)C(F)(F)C(F)(F)C(=O)O", ">", 100],
  ["CC(=O)Nc1ccc(N2C(=O)CS(=O)(=O)C2c2cccc(Oc3ccccc3)c2)cc1 (configuration not stated)", "=", 42.8],
  ["Cc1ccc(S(=O)(=O)N(CC(O)c2ccccc2)c2ccccc2F)cc1 (configuration not stated)", "=", 32.2],
  ["CCCCCNC(=O)[C@@H]1CCCN2C(=O)CC[C@H](NC(=O)[C@H](Cc3ccc(OP(=O)(O)O)cc3)NC(C)=O)C(=O)N12", ">", 25]
]}
